- target: human BKαβ1 channels (Homo sapiens, UniProt Q12791)
- Construct: expressed in transfected cells; host or cells: CHO cells (G418 and hygromycin selection)
- Sequence (Q12791 whole entry): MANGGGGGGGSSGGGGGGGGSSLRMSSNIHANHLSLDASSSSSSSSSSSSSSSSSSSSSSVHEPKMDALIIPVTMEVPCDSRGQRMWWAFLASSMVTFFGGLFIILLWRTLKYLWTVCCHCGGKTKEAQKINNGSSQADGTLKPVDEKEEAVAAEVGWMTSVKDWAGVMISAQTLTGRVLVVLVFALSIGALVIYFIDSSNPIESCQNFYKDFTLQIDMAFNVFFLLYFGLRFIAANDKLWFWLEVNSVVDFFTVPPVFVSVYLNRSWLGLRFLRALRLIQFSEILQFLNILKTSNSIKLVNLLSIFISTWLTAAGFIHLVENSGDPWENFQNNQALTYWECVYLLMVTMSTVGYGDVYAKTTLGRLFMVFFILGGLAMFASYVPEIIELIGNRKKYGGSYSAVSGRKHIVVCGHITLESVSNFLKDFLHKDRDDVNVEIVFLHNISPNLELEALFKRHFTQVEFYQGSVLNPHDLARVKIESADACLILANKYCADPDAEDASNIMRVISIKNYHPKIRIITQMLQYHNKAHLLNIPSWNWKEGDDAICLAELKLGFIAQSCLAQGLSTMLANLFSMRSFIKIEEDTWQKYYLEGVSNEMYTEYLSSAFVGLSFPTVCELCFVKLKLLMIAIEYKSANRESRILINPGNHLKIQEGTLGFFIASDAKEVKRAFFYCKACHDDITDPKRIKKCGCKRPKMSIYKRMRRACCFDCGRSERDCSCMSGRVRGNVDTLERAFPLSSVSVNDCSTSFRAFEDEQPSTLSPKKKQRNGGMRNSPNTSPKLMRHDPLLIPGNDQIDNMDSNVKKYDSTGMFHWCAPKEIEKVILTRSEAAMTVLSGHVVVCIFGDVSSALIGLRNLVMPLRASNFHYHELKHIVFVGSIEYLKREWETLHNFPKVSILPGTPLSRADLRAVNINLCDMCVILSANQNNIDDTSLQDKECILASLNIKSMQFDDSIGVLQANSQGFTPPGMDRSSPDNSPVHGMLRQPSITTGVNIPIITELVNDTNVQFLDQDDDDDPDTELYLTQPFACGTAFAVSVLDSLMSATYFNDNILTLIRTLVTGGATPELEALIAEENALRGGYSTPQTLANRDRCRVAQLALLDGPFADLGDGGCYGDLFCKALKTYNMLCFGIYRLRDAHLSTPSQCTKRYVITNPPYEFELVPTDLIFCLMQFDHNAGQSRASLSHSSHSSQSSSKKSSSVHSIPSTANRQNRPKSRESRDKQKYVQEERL
- Sequence (Q16558 whole entry partner): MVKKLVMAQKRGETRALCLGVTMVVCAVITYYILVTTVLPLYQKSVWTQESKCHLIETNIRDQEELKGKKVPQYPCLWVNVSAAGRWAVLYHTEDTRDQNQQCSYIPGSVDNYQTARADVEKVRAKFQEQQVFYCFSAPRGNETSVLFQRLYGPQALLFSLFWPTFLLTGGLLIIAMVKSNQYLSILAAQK
- assayText: BK current in CHO cells expressing human BKαβ1 (PatchXpress whole-cell patch clamp), EC100
- Format: cell-based
- conditionLabel: drug concentration causing 100% increase of BK current
- Procedure: Methods for Testing Compounds on Human BKαβ1 Channels Expressed Cho Cells CHO cells expressing human BKαβ1 were cultured in T75 or 6 well cell culture cluster. Medium: DMEM/F12+10% FBS+0.5 mg/mL G418/genetecin+0.1 mg/mL Hygromycin. […] PatchXpress Sealchip 16 electrodes (AVIVA Biosciences) and PatchXpress 7000A (Axon Instruments, Inc) were used for BK current recording. […] Control bath solution was added with robotic pipette and control BK current was recorded after 1 minute equilibrium time. […]
parameterMeasured: EC100 (µM)

[
  {
    "compound": "COc1ncccc1-c1cc(OC2(C(=O)[O-])CCCC2)nc(-c2ccc(Cl)c(F)c2)n1.[Na+]",
    "unitOfMeasurement": "µM",
    "EC100": 0.56
  },
  {
    "compound": "O=C([O-])C1(Oc2cc(-c3cncc(Cl)c3)nc(-c3ccc(Cl)c(F)c3)n2)CC1.[Na+]",
    "unitOfMeasurement": "µM",
    "EC100": 0.01
  },
  {
    "compound": "O=C(O)C1(Oc2cc(-c3ccc(Cl)s3)nc(N3CCc4cc(F)ccc4C3)n2)CC1",
    "unitOfMeasurement": "µM",
    "EC100": 0.01
  },
  {
    "compound": "O=C([O-])C1(Oc2cc(N3CCc4cc(F)ccc4C3)nc(-c3ccc(F)cc3)n2)CC1.[Na+]",
    "unitOfMeasurement": "µM",
    "EC100": 0.3
  },
  {
    "compound": "COCC1CCN(c2nc(-c3ccc(Cl)cc3)nc(OC3(C(=O)O)CC3)c2C)CC1",
    "unitOfMeasurement": "µM",
    "EC100": 1.74
  },
  {
    "compound": "COc1ccc(F)cc1-c1cc(OC2(C(=O)[O-])CC2)nc(-c2ccc(Cl)c(F)c2)n1.[Na+]",
    "unitOfMeasurement": "µM",
    "EC100": 0.32
  },
  {
    "compound": "COCCC1CCN(c2nc(-c3ccc(F)cc3)nc(OC3(C(=O)O)CC3)c2C)CC1",
    "unitOfMeasurement": "µM",
    "EC100": 0.95
  },
  {
    "compound": "CCOC1CCN(c2cc(OC3(C(=O)[O-])CC3)nc(-c3ccc(Cl)c(F)c3)n2)C1.[Na+] (stereo not drawn)",
    "unitOfMeasurement": "µM",
    "EC100": 1.09
  }
]

[a] O=C([O-])C1(Oc2cc(N3CCc4cc(F)ccc43)nc(-c3ccc(F)cc3)n2)CC1.[Na+]
[b] Cc1ccc(C(F)(F)F)cc1-c1cc(OC2(C(=O)O)CC2)nc(-c2ccc(F)cc2)n1
IN: Please state the entry with greater EC100 among a and b . Return value: the label identifying the chosen record.
OUT: a

[P] CCCCOC1CCN(c2nc(-c3ccc(F)cc3)nc(OC3(C(=O)[O-])CC3)c2C)CC1.[Na+]
[Q] Cc1ccc(Cl)cc1-c1nc(OC2(C(=O)[O-])CC2)nc(-c2ccc(Cl)cc2)n1.[Na+]
[R] COc1cc(F)cc(-c2cc(OC3(C(=O)[O-])CC3)nc(-c3ccc(Cl)c(F)c3)n2)c1.[Na+]
IN: Your job: order these 3 records by EC100, ascending. Returns: the labels listed in the requested order.
OUT: Q, R, P
